Data credit: patent US20250163449A1

Property: Conversion rate; scope: individual molecules
# protocol: Conversion rate of substrate compound A by E. coli expressing each engineered protein (HPLC, oxygenase activity)
# Assay type: biochemical
# test-context: Reaction condition 2: bacteria cultured overnight, 8 times dose of substrate compound A of condition 1 added, react 3 hours the next day
Response body: numeric value in %, unit text excluded.

1) SEQ ID NO: 78: RdpA mutant L82H + V187L + F182W + G103L + R180D (protein) MHAALSPLSQRFERIAVQPLTGVLGAEITGVDLREPLDDSTWNEILDAFHTYQVIYFPGQAITNEQHIAFSRRFGPVDPVPHLKSIEGYPEVQMIRREANESLRVIGDDWHTDSTFLDAPPAAVVMRAIDVPEHGGDTGFLSMYTAWETLSPTMQATIEGLNVVHSATRVFGSLYQAQNDRWSNTSLKVMDVDAGDRETVHPLVVTHPGSGRKGLYVNQVYCQRIEGMTDAESKPLLQFLYEHATRFDFTCRVRWKKDQVLVWDNLCTMHRAVPDYAGKFRYLTRTTVGGVRPAR: 79
2) SEQ ID NO: 106: RdpA mutant L82H + V187L + F182W + G103L + T112S (protein) MHAALSPLSQRFERIAVQPLTGVLGAEITGVDLREPLDDSTWNEILDAFHTYQVIYFPGQAITNEQHIAFSRRFGPVDPVPHLKSIEGYPEVQMIRREANESLRVIGDDWHSDSTFLDAPPAAVVMRAIDVPEHGGDTGFLSMYTAWETLSPTMQATIEGLNVVHSATRVFGSLYQAQNRRWSNTSLKVMDVDAGDRETVHPLVVTHPGSGRKGLYVNQVYCQRIEGMTDAESKPLLQFLYEHATRFDFTCRVRWKKDQVLVWDNLCTMHRAVPDYAGKFRYLTRTTVGGVRPAR: 86.3
3) SEQ ID NO: 82: RdpA mutant L82H + V187L + F182W + G103L + R180E (protein) MHAALSPLSQRFERIAVQPLTGVLGAEITGVDLREPLDDSTWNEILDAFHTYQVIYFPGQAITNEQHIAFSRRFGPVDPVPHLKSIEGYPEVQMIRREANESLRVIGDDWHTDSTFLDAPPAAVVMRAIDVPEHGGDTGFLSMYTAWETLSPTMQATIEGLNVVHSATRVFGSLYQAQNERWSNTSLKVMDVDAGDRETVHPLVVTHPGSGRKGLYVNQVYCQRIEGMTDAESKPLLQFLYEHATRFDFTCRVRWKKDQVLVWDNLCTMHRAVPDYAGKFRYLTRTTVGGVRPAR: 71.6

I have this molecule here, SEQ ID NO: 114 (protein) MHAALSPLSQRFERIAVQPLTGVLGAEITGVDLREPLDDSTWNEILDAFHTYQVIYFPGQAITNEQHIAFSRRFGPVDPVPHLKSIEGYPEVQMIRREANESLRVIGDDWHTDSTFLDAPPAAVVMRAIDVPEHGGDTGFLSMYTAWETLSPTMQATIEGLNVVHSATRVFGSLYQAQNRRWSNTSLKVMDVDAGDRETVHPLVVTHPGSGRKGLYVNQVYCQRIEGMTDAESKPLLQFLYEHATRYDFTCRVRWKKDQVLVWDNLCTMHRAVPDYAGKFRYLTRTTVGGVRPAR , and I need its recorded Conversion rate. 53
